meta.source: patent US20100009970A1

ASSAY_METHOD_TEXT: in vitro
CONDITION_INFO: human, CC50 (uM) [SG]
Reported CC50 by item:
REPORTED_ENDPOINT: CC50 (µM)

MOLECULE | RESULT_UNITS | RESULT_QUALIFIER | RESULT
CSc1ccc(Oc2ccc(S(=O)(=O)NC3CC3)cc2CN(C)C)cc1C | µM | = | 41.8
CSc1ccc(Oc2ccc(S(=O)(=O)Nc3ccc(Br)cc3)cc2CN(C)C)cc1C | µM | = | 8.17
CNC1CCC(c2ccc(OC)cc2)c2ccccc21 (stereo not drawn) | µM | = | 51.1
CN(CCO)[C@H]1CC[C@@H](c2ccc(Cl)c(Cl)c2)c2ccc(C[S+](C)[O-])cc21 (stereo partly drawn) | µM | > | 50
CSc1ccc(Oc2ccc(S(N)(=O)=O)cc2CN2C[C@@H](O)C[C@@H]2CO)cc1C | µM | > | 50
CNS(=O)(=O)c1ccc(Oc2ccc(SC)c(C)c2)c(CN(C)C)c1 | µM | = | 45.3
CSc1ccc(Oc2ccc(CNS(C)(=O)=O)cc2CN(C)C)cc1C | µM | > | 50
CNCc1ccccc1Oc1ccc(SC)c(C)c1 | µM | = | 26.4
CC(=O)NCc1ccc2c(c1)[C@@H](N(C)C)CC[C@H]2c1ccc(Cl)c(Cl)c1 | µM | = | 19.1
CSc1ccc(Oc2ccc(S(N)(=O)=O)cc2CO)cc1C | µM | > | 50
CSc1ccc(Oc2ccc(S(N)(=O)=O)cc2CN2CCCN(C)CC2)cc1C | µM | = | 35.9
CSc1ccc(Oc2ccc(S(N)(=O)=O)cc2N)cc1C | µM | > | 50
CNC1CCC(c2cccc(OC)c2)c2ccccc21 (stereo not drawn) | µM | > | 50
CNC1CCC(c2ccccc2OC)c2ccccc21 (stereo not drawn) | µM | = | 58.6
CN(C)[C@H]1CC[C@@H](c2ccc(Cl)c(Cl)c2)c2ccc(C(N)=O)cc21 | µM | = | 21.7
CNCc1ccccc1Oc1ccc(SC)cc1 | µM | > | 50
COc1ccc(Oc2ccc(Br)cc2CN(C)C)cc1 | µM | > | 50
CSc1ccc(Oc2ccc(S(N)(=O)=O)cc2CN2CCN(C3CCN(C)CC3)CC2)cc1C | µM | = | 9.1
CSc1ccc(Oc2ccccc2CN(C)C)cc1C | µM | = | 36
CNCc1cc(S(N)(=O)=O)ccc1Oc1ccc(SC)cc1 | µM | > | 50
CN(C)[C@H]1CC[C@@H](c2ccc(Cl)c(Cl)c2)c2ccc(NC(=O)c3ccccc3)cc21 | µM | = | 12.5
CSc1ccc(Oc2ccc(S(N)(=O)=O)cc2CN2CC[C@H](O)C2)cc1C | µM | > | 50
CSc1ccc(Oc2ccc(S(N)(=O)=O)cc2CN2CCN(c3ccc(Cl)cc3)CC2)cc1C | µM | = | 44.4
CN[C@@H]1CC[C@H](c2ccc(Cl)c(Cl)c2)c2ccccc21 [1R,4R Sertraline Enantiomer] | µM | = | 14.6
CSc1ccc(Oc2cc(C#N)ccc2CN(C)C)cc1C | µM | > | 50
O=C1CC[C@@H](c2ccc(Cl)c(Cl)c2)c2ccccc21 | µM | > | 50
CNCc1cc(S(N)(=O)=O)ccc1Oc1ccc(C)c(C)c1 | µM | = | 46.7
CSc1ccc(Oc2ccc(C(N)=O)cc2CN(C)C)cc1C | µM | > | 50
CSc1ccc(Oc2ccc(S(N)(=O)=O)cc2CN2CCC[C@H]2CN2CCCC2)cc1C | µM | = | 22.2
CN[C@H]1CC[C@@H](c2ccc(Cl)c(Cl)c2)c2ccc(S(=O)(=O)NC)cc21 [Sertraline Sulfonamide] | µM | = | 13
CC(=O)Nc1ccc2c(c1)C(C(C)C)CCC2c1ccc(Cl)c(Cl)c1 (stereo not drawn) | µM | > | 50
CSc1ccc(Oc2cc(Br)ccc2CN(C)C)cc1C | µM | = | 28.7
Cc1cc(Oc2ccc(S(N)(=O)=O)cc2CN(C)C)ccc1Br | µM | > | 50
CN[C@H]1CC[C@@H](c2ccc(Cl)c(Cl)c2)c2ccc(C#N)cc21 | µM | = | 14.8
CNC(=O)c1ccc2c(c1)[C@@H](NC)CC[C@H]2c1ccc(Cl)c(Cl)c1 [Sertraline A-Ring Methyl Carboxamide] | µM | = | 11.1
CSc1ccc(Oc2ccc(S(N)(=O)=O)cc2CN2CCN(CCO)CC2)cc1C | µM | > | 50

###

ASSAY_METHOD_TEXT: in vitro
CONDITION_INFO: human, CC50 (uM)

COMPOUND | RESULT_UNITS | RESULT_QUALIFIER | CC50
N[C@H]1CC[C@@H](c2ccc(Cl)c(Cl)c2)c2ccccc21 | µM | = | 8.98
CNC1CCC(c2ccc(C(F)(F)F)cc2)c2ccccc21 (stereo not shown) | µM | = | 14.2
CSc1ccc(Oc2ccc(S(N)(=O)=O)cc2CO)cc1C | µM | > | 50
CN[C@H]1CC[C@@H](c2ccc(Cl)c(Cl)c2)c2ccc(NC(=O)C3CCCC3)cc21 | µM | = | 7
CN[C@H]1CC[C@@H](c2ccc(Cl)c(Cl)c2)c2ccc(CN)cc21 | µM | = | 3.7
CN[C@H]1CC[C@@H](c2ccc(Cl)c(Cl)c2)c2ccc(CS(C)(=O)=O)cc21 | µM | = | 13
CN[C@H]1CC[C@@H](c2ccc(Cl)c(Cl)c2)c2ccc(N)cc21 | µM | = | 8.72
CNCc1cc(S(N)(=O)=O)ccc1Oc1ccc(SC)c(C)c1 | µM | = | 39.6
CN[C@H]1CC[C@@H](c2ccc(Cl)c(Cl)c2)c2ccc(C(=O)OC)cc21 | µM | = | 13.7
N[C@@H]1CC[C@H](c2ccc(Cl)c(Cl)c2)c2ccccc21 | µM | = | 8.1
CN[C@H]1CC[C@@H](c2ccc(Cl)c(Cl)c2)c2ccc(N(C)C)cc21 | µM | = | 6.22
CN(C)[C@H]1CC[C@@H](c2ccc(Cl)c(Cl)c2)c2ccc(NS(C)(=O)=O)cc21 [Dimethyl Sertraline Reverse Sulfonamide] | µM | = | 16.5
CN[C@H]1CC[C@@H](c2ccc(Cl)c(Cl)c2)c2ccc(S(=O)(=O)N(C)C)cc21 [Sertraline N,N-dimethylsulfonamide] | µM | = | 8.87
CN[C@H]1CC[C@@H](c2ccc(Cl)c(Cl)c2)c2ccc(I)cc21 [Sertraline Iodide] | µM | = | 8.92
CN[C@H]1CC[C@@H](c2ccc(Cl)c(Cl)c2)c2ccc(S(=O)(=O)NC)cc21 [Sertraline Sulfonamide] | µM | = | 13
CSc1ccc(Oc2ccc(S(N)(=O)=O)cc2CN(C)C)cc1 | µM | > | 50
CN[C@H]1CC[C@@H](c2ccc(Cl)c(Cl)c2)c2ccc(C#N)cc21 | µM | = | 14.8
CN[C@H]1CC[C@@H](c2ccc(Cl)c(Cl)c2)c2ccc([N+](=O)[O-])cc21 | µM | = | 8.03
CN[C@H]1CC[C@@H](c2ccc(Cl)c(Cl)c2)c2ccc(S(N)(=O)=O)cc21 [Sertraline Sulfonamide NH2] | µM | = | 9.99
CNC1CCC(c2ccc(Oc3ccccc3)cc2)c2ccccc21 (stereo not shown) | µM | = | 6.8
CN[C@H]1CC[C@@H](c2ccc(Cl)c(Cl)c2)c2ccc(NS(C)(=O)=O)cc21 [Sertraline (Reverse) Methanesulfonamide] | µM | = | 12.9
CN[C@H]1CC[C@@H](c2ccc(Cl)c(Cl)c2)c2ccc(CNS(C)(=O)=O)cc21 | µM | = | 11.2
CN[C@H]1CC[C@@H](c2ccc(Cl)c(Cl)c2)c2ccccc21 [Sertraline, sertraline, reference compound] | µM | = | 7.98
CN[C@H]1CC[C@@H](c2ccc(Cl)c(Cl)c2)c2ccc(NS(=O)(=O)C3CC3)cc21 | µM | = | 7.45
CSc1ccc(Oc2ccc(S(N)(=O)=O)cc2CN(C)C)cc1C [UK-416244, reference compound] | µM | = | 327
CN[C@H]1CC[C@@H](c2ccc(Cl)c(Cl)c2)c2ccc(NC(=O)c3ccccc3)cc21 [Sertraline A-Ring Reverse Benzamide] | µM | = | 3.67
CN[C@H]1CC[C@@H](c2ccc(Cl)c(Cl)c2)c2ccc(NC(C)=O)cc21 [Sertraline A-Ring Reverse Carboxamide] | µM | = | 10.7
CN(C)[C@H]1CC[C@@H](c2ccc(Cl)c(Cl)c2)c2ccccc21 | µM | = | 72.2
CCCCC(=O)Nc1ccc2c(c1)[C@@H](NC)CC[C@H]2c1ccc(Cl)c(Cl)c1 [Sertraline A-Ring Reverse Pentanamide] | µM | = | 4.32
CN(C)[C@H]1CC[C@@H](c2ccc(Cl)c(Cl)c2)c2ccc(C(N)=O)cc21 | µM | = | 20.7
CN[C@H]1CC[C@@H](c2ccc(Cl)c(Cl)c2)c2ccc(NS(=O)(=O)c3ccccc3)cc21 | µM | = | 3.91
